Biological target: T1, recombinant BACE1 (BACE1 extracellular domain, R&D Systems Cat#931-AS) (UniProt P56817 22-457)
T1 construct: extracellular domain; also called BACE1 extracellular domain protein
T1 sequence (P56817 22-457): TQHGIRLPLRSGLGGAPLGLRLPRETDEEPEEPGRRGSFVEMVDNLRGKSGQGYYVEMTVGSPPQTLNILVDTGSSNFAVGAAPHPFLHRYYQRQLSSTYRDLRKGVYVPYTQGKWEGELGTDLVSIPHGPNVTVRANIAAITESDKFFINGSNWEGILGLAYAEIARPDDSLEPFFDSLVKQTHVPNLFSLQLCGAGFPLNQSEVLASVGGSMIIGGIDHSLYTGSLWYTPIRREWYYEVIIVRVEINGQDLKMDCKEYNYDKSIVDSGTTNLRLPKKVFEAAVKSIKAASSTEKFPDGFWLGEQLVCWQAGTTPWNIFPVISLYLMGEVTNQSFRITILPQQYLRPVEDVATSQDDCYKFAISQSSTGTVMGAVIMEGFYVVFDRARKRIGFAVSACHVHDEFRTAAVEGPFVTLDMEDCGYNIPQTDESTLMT
Experiment: SPR Biacore
Flag rule - koff less than 0.0003 s⁻¹ flags Condition met; the remaining entries get Condition not met.

- Binder: "2H8.23 (antibody, human IgG1, V domains shown, human IgG1/kappa; also called 2H8_HCvar5 + 2H8_LCvar4) VH: EVQLQQPGAEVVRPGTSVKLSCKASGYTFTNYWMHWVKQRPGQGLEWIGMIDPSDNYTKYNQKLKGKATLTVDTSSSTANMHVNSLTSEDSAVYFCARSGVAFPYWGQGTLVTVSA VL: DIVMTQSQKFMSTSVGDRVSITCKASQNVGTNVAWYQQKPGQSPKALIYSASYRYSGVPDRFTGSGSGTDFTLTISNVQSEDLAEYFCQQYNSYPYTFGGGTKLEIK"
  Label: "Condition not met"
- Binder: "2H8.25 (antibody, human IgG1, V domains shown, human IgG1/kappa; also called 2H8_HC + 2H8_LCvar5) VH: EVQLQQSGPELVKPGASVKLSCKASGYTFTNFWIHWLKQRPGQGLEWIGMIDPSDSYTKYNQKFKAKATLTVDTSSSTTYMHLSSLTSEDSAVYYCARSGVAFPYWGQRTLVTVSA VL: DIVMTQSQKFMSTSVGDRVSVTCKASQNVGTNVAWYQQKSGQSPKALIYSASHRYSGVPDRFTGSGSGTDFTLTISNVQSEDLAEYFCQQYNSYPYTFGGGTKLEIK"
  Label: "Condition met"
- Binder: "2H8.29 (antibody, human IgG1, V domains shown, human IgG1/kappa; also called 2H8_HCvar5 + 2H8_LCvar5) VH: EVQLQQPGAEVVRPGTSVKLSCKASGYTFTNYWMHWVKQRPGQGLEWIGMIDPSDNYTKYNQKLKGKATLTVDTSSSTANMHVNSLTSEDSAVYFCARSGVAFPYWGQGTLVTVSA VL: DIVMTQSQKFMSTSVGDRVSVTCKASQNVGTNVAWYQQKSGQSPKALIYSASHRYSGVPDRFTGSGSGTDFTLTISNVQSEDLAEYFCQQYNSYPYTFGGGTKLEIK"
  Label: "Condition met"
- Binder: "2H8.32 (antibody, human IgG1, V domains shown, human IgG1/kappa; also called 2H8_HCvar2 + 2H8_LCvar6) VH: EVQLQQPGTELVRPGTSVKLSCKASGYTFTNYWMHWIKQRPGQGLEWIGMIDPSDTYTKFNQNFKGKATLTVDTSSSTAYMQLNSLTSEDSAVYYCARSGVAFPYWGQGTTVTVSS VL: DIQMTQSQKFMSKSVGDRVSVTCKASQNVGSNVAWYQQKSGQSPKSLIYSASHRYSGVPDRFTGSGSGTDFTLTISNVQSEDLADYFCQQYNSYPYTFGGGTRLEIK"
  Label: "Condition met"
- Binder: "2H8.03 (antibody, human IgG1, V domains shown, human IgG1/kappa; also called 2H8_HCvar3 + 2H8_LC) VH: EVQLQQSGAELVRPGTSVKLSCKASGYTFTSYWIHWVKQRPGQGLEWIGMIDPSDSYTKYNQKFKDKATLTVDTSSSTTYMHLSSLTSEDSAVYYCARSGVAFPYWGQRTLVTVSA VL: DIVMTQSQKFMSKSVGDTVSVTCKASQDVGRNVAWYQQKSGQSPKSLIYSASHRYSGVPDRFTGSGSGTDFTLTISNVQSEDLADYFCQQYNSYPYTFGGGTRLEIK"
  Label: "Condition met"
